These data points were gathered from patent US4194006A.

# System: female rats
# Assay text: antifatigue effect: rota-rod
# Type: in vivo, rat
# Condition set: Rattus norvegicus, ip, 0.25 h, read-out: percentage of animals staying on the rota-rod more than 180 seconds, 600 mg/kg i.p.; session 3 (every 15 minutes)
Below is a list of entries, each paired with its recorded responders at 600 mg/kg value.

| Molecule | Experimental target | responders at 600 mg/kg [%] |
| --- | --- | --- |
| C[N+](C)(C)CC(O)CC(=O)[O-] (racemic) [d,l-carnitine, γ-trimethyl amino β-hydroxy butyric acid] | female rats | 16.7 |
| CC(=O)OC(CC(=O)[O-])C[N+](C)(C)C (racemic) | female rats | 10 |
| CCC(=O)OC(CC(=O)[O-])C[N+](C)(C)C (racemic) | female rats | 20 |
| CCCCCCCCCCCCCCCC(=O)OC(CC(=O)[O-])C[N+](C)(C)C (racemic) | female rats | 0 |
